Target: 5-hydroxytryptamine receptor 3A (Homo sapiens, UniProt P46098)
Sequence (P46098 whole entry): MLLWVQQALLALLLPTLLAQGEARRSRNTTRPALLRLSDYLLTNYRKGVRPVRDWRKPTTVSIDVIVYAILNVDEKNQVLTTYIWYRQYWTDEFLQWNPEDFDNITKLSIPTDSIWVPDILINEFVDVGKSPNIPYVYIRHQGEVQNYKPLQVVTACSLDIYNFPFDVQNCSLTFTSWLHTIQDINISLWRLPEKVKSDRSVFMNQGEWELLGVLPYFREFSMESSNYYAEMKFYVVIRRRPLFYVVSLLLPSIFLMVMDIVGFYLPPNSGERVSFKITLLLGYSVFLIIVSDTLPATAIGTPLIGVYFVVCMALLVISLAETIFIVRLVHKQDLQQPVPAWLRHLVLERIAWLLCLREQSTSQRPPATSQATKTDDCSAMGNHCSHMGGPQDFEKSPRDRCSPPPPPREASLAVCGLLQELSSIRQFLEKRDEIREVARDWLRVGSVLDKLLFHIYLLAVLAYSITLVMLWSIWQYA
pKi: −log10 of the molar value.
metric: pKi

Please report the recorded pKi for COc1ccc2[nH]c(C)c(CCN)c2c1 .
< 5.00

Origin of the recorded values: ChEMBL document CHEMBL1145819
